# experiment notes: Size-exclusion chromatography on Superdex Peptide 10/300GL column
# Type: physicochemical
# details: size-exclusion chromatography, peptide dissolved in PBS
# Source text: […]
quantity kind: Aggregation?

Example sequences with recorded Aggregation?:
Param item = ETWIWLDTNMGSRIYQEFEVT [Peptide P21] ; retrieve measured Aggregation?.
Not aggregated

Also, WINMDTGQLIEQRYTS [Peptide P16-2, reference compound] please.
Not aggregated

Also, GSRIYQEFEVT [Peptide X-4] please.
Not aggregated

Also, LGSSPHVRKHFPETWIWLDTNMGSRIYQEFEVTVPDSITS (Peptide X) please.
Aggregated

Also, ETWIWLDTNMG [Peptide P11] please.
Not aggregated

Also, LDTNMGSRIYQEFEVT [Peptide X-3] please.
Aggregated

Continuing:
Param item = ETWIWLDTNMGSRIYQ [Peptide P16] ; retrieve measured Aggregation?.
Not aggregated

Also, ETWIWLDTNMGSRIYQEFEVTVPDSITS (Peptide X-1) please.
Aggregated

This collection of values is drawn from patent US11787850B2.
